biological target: furin, P09958; assay: furin cleavage Z-score vs untreated control; higher = more cleavage, active = 3.5 or more, inactive = 1 or less, 8 variable residues between constant flanks; conditions: 30 min;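 further: purified furin at 1:10 enzyme:substrate in 50 mM HEPES pH 7.5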
Sequence (P09958 whole entry): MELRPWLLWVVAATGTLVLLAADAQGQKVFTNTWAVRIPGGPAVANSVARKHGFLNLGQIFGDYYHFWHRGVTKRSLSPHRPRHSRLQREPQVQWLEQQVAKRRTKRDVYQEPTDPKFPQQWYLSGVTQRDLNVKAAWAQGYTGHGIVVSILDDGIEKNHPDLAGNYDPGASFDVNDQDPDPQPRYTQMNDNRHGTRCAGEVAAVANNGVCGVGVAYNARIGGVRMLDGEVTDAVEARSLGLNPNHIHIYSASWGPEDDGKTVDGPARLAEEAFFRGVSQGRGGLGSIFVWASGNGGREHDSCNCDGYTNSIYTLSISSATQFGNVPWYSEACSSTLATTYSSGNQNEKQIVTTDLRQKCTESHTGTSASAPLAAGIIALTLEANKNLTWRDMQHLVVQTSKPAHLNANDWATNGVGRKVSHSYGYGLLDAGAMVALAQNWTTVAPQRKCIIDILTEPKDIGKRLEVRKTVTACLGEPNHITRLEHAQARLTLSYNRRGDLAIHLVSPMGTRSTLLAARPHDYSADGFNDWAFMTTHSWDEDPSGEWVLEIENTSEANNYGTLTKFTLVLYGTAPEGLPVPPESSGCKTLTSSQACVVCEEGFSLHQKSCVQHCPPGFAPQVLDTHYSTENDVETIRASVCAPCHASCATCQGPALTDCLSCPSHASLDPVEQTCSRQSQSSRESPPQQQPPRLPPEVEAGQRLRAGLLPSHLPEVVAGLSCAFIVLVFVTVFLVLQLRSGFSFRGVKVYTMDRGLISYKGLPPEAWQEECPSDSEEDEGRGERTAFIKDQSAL
Some of the results follow. The true hit rate is not given.
Outcomes you can answer with include only these: T (active), F (inactive)

>  <sequence_record>
CALWARMILMAGNASASA [HC1580]

>  <category>
F

$$$$
>  <sequence_record>
CALCSALYVGAGNASASA [HC296]

>  <category>
F

$$$$
>  <sequence_record>
CARGKRQATAAGNASASA [FS-2016]

>  <category>
T

$$$$
>  <sequence_record>
CATWLKAKLMAGNASASA [HC1157]

>  <category>
T

$$$$
>  <sequence_record>
CATPGDPKRTAGNASASA [FS-510]

>  <category>
F

$$$$

Returns: the outcome recorded for CAVLHRNKRTAGNASASA [FS-1661] in this assay.
T

Returns: the outcome recorded for CAVLGRKKRTAGNASASA [FS-1102] in this assay.
T
